Test system: blood pressure
Experiment: hypotensive activity in the anesthetized dog, intravenous administration
Format: in vivo
Conditions: relative to PGE1 = 1
Threshold 20: Hypotensive activity (PGE1 = 1) strictly smaller gives satisfied, otherwise not satisfied.

> print(dat)
                                   compound  classification
1  CCCC[C@H](C)C[C@H](O)/C=C/[C@H]1[C@H](O)CC(=O)[C@@H]1CC(=O)CCCCC(=O)N[C@@H](Cc1ccccc1)C(=O)OC       satisfied
2  CCCCC(C)C[C@H](O)/C=C/[C@H]1[C@H](O)CC(=O)[C@@H]1CC(=O)CCCCC(=O)O (some centres unmarked) [(d), reference compound]   not satisfied
3  CCCC[C@H]1CC[C@H]([C@H](O)/C=C/[C@H]2[C@H](O)CC(=O)[C@@H]2CC(=O)CCCCC(=O)N[C@@H](CC(C)C)C(=O)O)C1       satisfied
4  CCCC[C@H]1CC[C@H]([C@H](O)/C=C/[C@H]2[C@H](O)CC(=O)[C@@H]2CC(=O)CCCCC(=O)N[C@@H](Cc2ccccc2)C(=O)O)C1       satisfied
5  CCCC[C@H]1CC[C@H]([C@H](O)/C=C/[C@H]2[C@H](O)CC(=O)[C@@H]2CC(=O)CCCCC(=O)O)C1 [(e), reference compound]   not satisfied
